The following molecules are shown together with reported cell viability values.
Tested on: Caco-2
Experiment: cell viability relative to DMSO; higher = less toxic
Details: 72 h; 1000 nM
Give a bare numeral; the unit % is implied.

// below: answered molecules
Asked: Recall the recorded cell viability for `Cc1nc[nH]c1CCN` with Caco-2 and state it.
Given back: 100

Asked: Request body: readout cell viability, system Caco-2, query `CC(C)[C@H](NS(=O)(=O)c1ccc(-c2ccc(Br)cc2)cc1)C(=O)O` . Return the value.
Given back: 92.6

Asked: Checklist item: cell viability tested on Caco-2, entry Cc1ncc(COP(=O)([O-])[O-])c(CN(CCN(CC(=O)O)Cc2c(COP(=O)([O-])O)cnc(C)c2O)CC(=O)O)c1O.[Mn].[Na+].[Na+].[Na+] [Mangafodipir (trisodium)] , value?
Given back: 108

Asked: Enter reported cell viability observed with Caco-2 for `c1ccc(Cn2c(-c3ccc(OC[C@H](C4CCNCC4)n4c(-c5ccccc5)nc5ccccc54)cc3)nc3ccccc32)cc1`
Given back: 95.9

Asked: // lookup cell viability | system=Caco-2 | key= `CCC(=O)NCC[C@@H]1CCc2ccc3c(c21)CCO3`
Given back: 101

***
Asked: Return cell viability measured with Caco-2 given this molecule: COCCc1ccc(OCC(O)CNC(C)C)cc1 (stereo not drawn)
Given back: 110

Asked: Provide the documented cell viability with Caco-2 as the system for `CC(=O)O[C@H]1C[C@@H]2CC[C@@H]3[C@H](CC[C@@]4(C)[C@H]3C[C@H]([N+]3(C)CCCCC3)[C@@H]4OC(C)=O)[C@@]2(C)C[C@@H]1[N+]1(C)CCCCC1`
Given back: 97.5

Asked: Request: cell viability, test system Caco-2, entry `O=c1ncn2nc(Sc3ccc(F)cc3F)ccc2c1-c1c(Cl)cccc1Cl`
Given back: 99.7

###

Readings of relative viability EC50 for the listed compounds
System: Caco-2
Assay: relative viability EC50 (midpoint between 100% and the lowest measured viability); higher = less toxic
Settings: 72 h

// known answers, use as guide
Asked: Return relative viability EC50 measured with Caco-2 given this compound: `C[C@]12CCC(=O)C[C@@H]1CC[C@@H]1[C@@H]2CC[C@]2(C)C=CC[C@@H]12`
Given back: > 10 µM

Asked: Recall the recorded relative viability EC50 for `CCCCCCCCCCC(C)(C)C(=O)Nc1c(OC)cc(OC)cc1OC` with Caco-2 and state it.
Given back: > 10 µM

Asked: # value lookup — system Caco-2, readout relative viability EC50, item `CCc1ccc(Cc2ccc3c(c2)[C@]2(OC3)O[C@H](CO)[C@@H](O)[C@H](O)[C@H]2O)cc1`
Given back: > 10 µM

Others:
Asked: // fetch Caco-2 relative viability EC50 for CCC1=C(C)CN(C(=O)NCCc2ccc(S(=O)(=O)NC(=O)N[C@H]3CC[C@H](C)CC3)cc2)C1=O [glimepiride]
Given back: > 10 µM

Asked: Under Caco-2: relative viability EC50 value of `O=C(NC1CCOCC1)c1ccc(-c2cc(-c3c[nH]nc3-c3ccccn3)ccn2)cc1` ?
Given back: > 10 µM

Asked: Report relative viability EC50 for `NC(N)=Nc1nc(CSCC/C(N)=N/S(N)(=O)=O)cs1` tested on Caco-2.
Given back: > 10 µM

Asked: Item: `CCOC(=O)[C@H](CCc1ccccc1)N[C@@H](C)C(=O)N1CCC[C@H]1C(=O)O` Test system: Caco-2 Read-out: relative viability EC50 Value: ?
Given back: > 10 µM

Asked: Form entry - test system: Caco-2; read-out: relative viability EC50; compound: `Cc1cc(C)c(Nc2ccnc(Nc3ccc(C#N)cc3)n2)c(C)c1`
Given back: 1.49 µM

Asked: Entry `NC(=O)Nc1sc(-c2ccc(F)cc2)cc1C(N)=O` , system Caco-2: what relative viability EC50 was measured?
Given back: 1.44 µM

###

Test system: U2OS
Experiment: cell viability relative to DMSO; higher = less toxic
Details: 72 h; 100 nM
Reported endpoint: cell viability (%)
Lab book: enter the figure in %, no units written.

Use the examples below as a reference point.
Asked: Lookup: cell viability / U2OS / `Oc1ccc2c3c1O[C@H]1c4[nH]c5ccccc5c4C[C@@]4(O)[C@@H](C2)N(CC2CC2)CC[C@]314`
Given back: 102

Asked: Form entry - test system: U2OS; read-out: cell viability; molecule: CC(=O)Nc1nnc(S(N)(=O)=O)s1 [acetazolamide]
Given back: 95.7

Asked: Look up cell viability with U2OS for this molecule: `C=CC[C@@H]1/C=C(\C)C[C@H](C)C[C@H](OC)[C@H]2O[C@@](O)(C(=O)C(=O)N3CCCC[C@H]3C(=O)O[C@H](/C(C)=C/[C@@H]3CC[C@@H](O)[C@H](OC)C3)[C@H](C)[C@@H](O)CC1=O)[C@H](C)C[C@@H]2OC`
Given back: 98.7

Asked: Query the reported cell viability for U2OS; item: `CCc1oc2ccccc2c1C(=O)c1cc(Br)c(O)c(Br)c1`
Given back: 102

Asked: Could you share what cell viability was measured for CC(N)C12CC3CC(CC(C3)C1)C2 (stereo not drawn) , tested on U2OS?
Given back: 101

New cases:
Asked: Quick check: cell viability on U2OS, item `NC(CO)(CO)CO` ?
Given back: 98.8

Asked: Kindly state the measured cell viability obtained for `CCCCC[C@H](O)/C=C/[C@H]1[C@H](O)CC(=O)[C@@H]1CCCCCCC(=O)O` with U2OS.
Given back: 100

Asked: Find cell viability (U2OS) for the entry `C=CC(=O)Nc1cc(Nc2nccc(-c3cn(C)c4ccccc34)n2)c(OC)cc1N(C)CCN(C)C`
Given back: 92.3

###

System: Caco-2
Test: cell viability relative to DMSO; higher = less toxic
Settings: 72 h; 10000 nM
Reported values of cell viability for individual entries
Report as: number unit

Recorded results for 3 compounds are shown here.
Asked: // returns reported cell viability for input `O=C(NCc1ccncc1)C12CC3CC(C1)CC(c1ccc(Cl)cc1)(C3)C2`
Given back: 92.9%

Asked: State the recorded cell viability for this entry: `Ic1cncc(OC[C@@H]2CCN2)c1`
Given back: 108%

Asked: Which cell viability value belongs to OC[C@H]1NCC[C@@H](O)[C@@H]1O [fagomine] ?
Given back: 87.9%

---
Asked: Reported cell viability, compound C[C@]12CC[C@@H]3c4ccc(OC(=O)N(CCCl)CCCl)cc4CC[C@H]3[C@@H]1CC[C@@H]2OP(=O)(O)O [estramustine-phosphate] : ____
Given back: 94.9%

###

The entries below are paired with their reported drug sensitivity score.
Test system: Caco-2
Test: drug sensitivity score (DSS) for viability; higher = more toxic; extreme values may be limits of the assay
Conditions: 72 h
Number, no unit, nothing else.

Asked: Need drug sensitivity score, item CN1c2c([nH]c(N)nc2=O)NC[C@@H]1CNc1ccc(C(=O)N[C@@H](CCC(=O)O)C(=O)O)cc1 [metafolin]
Given back: 0

Asked: Any idea what its drug sensitivity score is? The compound is CCOc1ccc(Cc2cc([C@@H]3O[C@H](SC)[C@@H](O)[C@H](O)[C@H]3O)ccc2Cl)cc1 [sotagliflozin]
Given back: 0

Asked: Fill in the blank: the reported drug sensitivity score of OCC[N+]12CN3CN(CN(C3)C1)C2 [Y-11] is ____.
Given back: 0

Asked: GET /values?readout=drug sensitivity score&item= C[C@H]1N=C(N(C)C)N=C(N)N1 [imeglimin]
Given back: 0

Asked: Look up drug sensitivity score for this compound: O=C([O-])c1ccccn1.O=C([O-])c1ccccn1.O=C([O-])c1ccccn1.[Cr+3] [chromium-picolinate]
Given back: 0

---
Asked: // returns reported drug sensitivity score for input Cc1c(C(=O)NN2CCOCC2)nn(-c2ccc(Cl)cc2Cl)c1-c1ccc(I)cc1 [AM-281]
Given back: 0

Asked: Requested read-out: drug sensitivity score. Entry: Cn1c(COc2ccc(CC3SC(=O)NC3=O)cc2)nc2ccccc2c1=O (stereo not drawn) [balaglitazone]
Given back: 0.1

Asked: What value of drug sensitivity score has been recorded for this entry: O=C(O)c1ccccc1C(=O)Nc1ccc(S(=O)(=O)Nc2nccs2)cc1 [phthalylsulfathiazole]
Given back: 0

Asked: Bench note: what drug sensitivity score did CC1=C(C(=O)OC2CCCCC2)C(c2ccc([N+](=O)[O-])cc2)C2=C(CC(C)(C)CC2=O)N1 (stereo not drawn) [FLI-06] show?
Given back: 4.7

Asked: Query (compound): COc1cc(OC)c(C(=O)CCCN2CCCC2)c(OC)c1 [buflomedil] ; field requested: drug sensitivity score
Given back: 0

Asked: Value lookup for drug sensitivity score; key = c1ccc(Cn2c(-c3ccc(OC[C@H](C4CCNCC4)n4c(-c5ccccc5)nc5ccccc54)cc3)nc3ccccc32)cc1 [deltarasin]
Given back: 6

Asked: GET /values?readout=drug sensitivity score&item= COCCc1ccc(OCC(O)CNC(C)C)cc1 (stereo not drawn) [metoprolol]
Given back: 0

Asked: Recorded drug sensitivity score for CN(C)CCc1c[nH]c2ccc(Cn3cncn3)cc12 [rizatriptan] , please?
Given back: 0.2
